- Test system: DU-4475
- measurementDescription: normalised response (% of control), CellTiter-Glo; higher = more viable cells (100 = DMSO, 0 = benzethonium chloride kill control)
- conditionSet: incubation time: 72 h
endpointLabel: normalised response (%)
Number in %, nothing else.

I am curious: what normalised response value has been reported for C[C@]12CC[C@@H]3c4ccc(O)cc4C[C@@H](CCCCCCCCC[S+]([O-])CCCC(F)(F)C(F)(F)F)[C@H]3[C@@H]1CC[C@@H]2O (stereo not given in full) [Fulvestrant] (10 nM) ?
101

I am curious: what normalised response value has been reported for Cn1c(Nc2ccc(C(F)(F)F)cc2)nc2cc(Oc3ccnc(-c4ncc(C(F)(F)F)[nH]4)c3)ccc21 [RAF265] (10 nM) ?
105

I am curious: what normalised response value has been reported for O=C(O)c1ccc(-c2c[nH]c3ncc(-c4ccccc4)cc23)cc1C1CCCC1 (100 nM) ?
98.2

I am curious: what normalised response value has been reported for Cc1ccc(-n2nc(C(C)(C)C)cc2NC(=O)Nc2ccc(OCCN3CCOCC3)c3ccccc23)cc1 [Doramapimod] (100 nM) ?
93.7

I am curious: what normalised response value has been reported for CS(=O)(=O)c1ccc(C2=C(c3ccccc3)C(=O)OC2)cc1 [Rofecoxib] (100 nM) ?
102

---

- Tested on: MFM-223
- measurementDescription: normalised response (% of control), CellTox Green; higher = less cell death (100 = DMSO, 0 = benzethonium chloride kill control)
- conditionSet: incubation time: 72 h
Give normalised response for every item shown.
Number in %, nothing else.

// map C=C(c1ccc(C(=O)O)cc1)c1cc2c(cc1C)C(C)(C)CCC2(C)C [Bexarotene] (1000 nM) to recorded normalised response (system: MFM-223)
103

// map CN[C@@H]1C[C@H]2O[C@@](C)([C@@H]1OC)n1c3ccccc3c3c4c(c5c6ccccc6n2c5c31)C(=O)N[C@H]4O [UCN-01] (100 nM) to recorded normalised response (system: MFM-223)
80.2

// map C=C(c1ccc(C(=O)O)cc1)c1cc2c(cc1C)C(C)(C)CCC2(C)C [Bexarotene] (10000 nM) to recorded normalised response (system: MFM-223)
74.1

// map CN[C@@H]1C[C@H]2O[C@@](C)([C@@H]1OC)n1c3ccccc3c3c4c(c5c6ccccc6n2c5c31)C(=O)N[C@H]4O [UCN-01] (1000 nM) to recorded normalised response (system: MFM-223)
67.8

// map C[C@]12CC[C@@H]3c4ccc(O)cc4C[C@@H](CCCCCCCCC[S+]([O-])CCCC(F)(F)C(F)(F)F)[C@H]3[C@@H]1CC[C@@H]2O (stereo partly specified) [Fulvestrant] (100 nM) to recorded normalised response (system: MFM-223)
90.7

// map CCC(C)(C)C(=O)O[C@H]1C[C@@H](C)C=C2C=C[C@H](C)[C@H](CC[C@@H]3C[C@@H](O)CC(=O)O3)[C@H]21 [Simvastatin] (1000 nM) to recorded normalised response (system: MFM-223)
100

// map CCC1=C[C@@H]2CN(C1)Cc1c([nH]c3ccccc13)[C@@](C(=O)OC)(c1cc3c(cc1OC)N(C)[C@H]1[C@@](O)(C(=O)OC)[C@H](OC(C)=O)[C@]4(CC)C=CCN5CC[C@]31[C@@H]54)C2 [Vinorelbine] (1000 nM) to recorded normalised response (system: MFM-223)
55.2

// map COc1cc2ncnc(Nc3ccc(F)c(Cl)c3)c2cc1NC(=O)/C=C/CN1CCCCC1 [Dacomitinib] (1000 nM) to recorded normalised response (system: MFM-223)
99.5

// map C#Cc1cccc(Nc2ncnc3cc(OCCOC)c(OCCOC)cc23)c1 [Erlotinib] (100 nM) to recorded normalised response (system: MFM-223)
103

// map NC(=O)Nc1cc(-c2cccc(F)c2)sc1C(=O)N[C@H]1CCCNC1 [AZD7762] (1000 nM) to recorded normalised response (system: MFM-223)
95.8

// map Clc1ccc(Nc2nnc(Cc3ccncc3)c3ccccc23)cc1 [Vatalanib] (1000 nM) to recorded normalised response (system: MFM-223)
103

// map COc1cc2nccc(Oc3ccc(NC(=O)C4(C(=O)Nc5ccc(F)cc5)CC4)cc3)c2cc1OC [Cabozantinib] (10 nM) to recorded normalised response (system: MFM-223)
100

// map COc1cc2ncnc(Nc3ccc(F)c(Cl)c3)c2cc1NC(=O)/C=C/CN1CCCCC1 [Dacomitinib] (10 nM) to recorded normalised response (system: MFM-223)
100

// map Cn1c(Nc2ccc(C(F)(F)F)cc2)nc2cc(Oc3ccnc(-c4ncc(C(F)(F)F)[nH]4)c3)ccc21 [RAF265] (10 nM) to recorded normalised response (system: MFM-223)
103

// map N.N.[Cl][Pt][Cl] [Cisplatin] (1000 nM) to recorded normalised response (system: MFM-223)
93.2

// map C[C@@H](Oc1cc(-c2cnn(C3CCNCC3)c2)cnc1N)c1c(Cl)ccc(F)c1Cl [Crizotinib] (100 nM) to recorded normalised response (system: MFM-223)
99.2
